# system_name: human GLP-1 receptor (GLP-1R) (human, UniProt P43220 24-463)
# protocol_notes: cell-based or functional assay
Square brackets hold non-standard residues; d marks the D form. Ends that are not written are not given here. αMePhe(2-F) = C[C@](N)(Cc1ccccc1F)C(=O)O; Aib = CC(C)(N)C(=O)O
Quick rule for you: hGLP1R cAMP EC50 ratio under 0.4 gets condition met, anything else gets condition not met.

| binder | class_assignment |
| --- | --- |
| YXEGTXTSDHSIXLDEKAQXTFIXYLIXGGPSSGAPPPS (Y-Aib-EGT-αMeF(2F)-TSDHSI-αMeF-LDEK((2-[2-(2-Amino-ethoxy)-ethoxy]-acetyl)2-(γ-Glu)-CO-(CH2)18-CO2H)AQ-Aib-TFI-(D-Glu)-YLI-(D-Glu)-GGPSSGAPPPS-NH2) [Example 164] | condition met |
| YXEGTXTSDHSILLDKKAQXAFIEYLIEGGPSSGAPPPS (Y-Aib-EGT-αMeF-TSDHSILLDKK((2-[2-(2-Amino-ethoxy)-ethoxy]-acetyl)2-(γ-Glu)-CO-(CH2)18-CO2H)AQ-Aib-AFIEYLIEGGPSSGAPPPS-NH2) [Example 128] | condition not met |
| YXEGTXTSDHSIXLDEKAQXTFIXYLIEGGPSSGAPPPS (Y-Aib-EGT-αMeF(2F)-TSDHSI-αMeF-LDEK((2-[2-(2-Amino-ethoxy)-ethoxy]-acetyl)2-(γ-Glu)-CO-(CH2)18-CO2H)AQ-Aib-TFI-(D-Glu)-YLIEGGPSSGAPPPS-NH2) [Example 168] | condition met |
| Y[Aib]EGT[αMePhe(2-F)]TSDYSIXLDEKAQ[Aib]EFI[Aib]YLIEGGPSSGAPPPS-NH2 (not fully specified (residues 13, 17); printed as Y-Aib-EGT-αMeF(2F)-TSDYSI-αMeF-LDEK((2-[2-(2-Amino-ethoxy)-ethoxy]-acetyl)2-(γ-Glu)-CO-(CH2)18-CO2H)AQ-Aib-EFI-Aib-YLIEGGPSSGAPPPS-NH2) [Example 152] | condition not met |
| YXEGTXTSDHSIXLDXKAQXTFIXYLIEGGPSSGAPPPS (Y-Aib-EGT-αMeF(2F)-TSDHSI-αMeF-LD-Dap-K((2-[2-(2-Amino-ethoxy)-ethoxy]-acetyl)2-(γ-Glu)-CO-(CH2)18-CO2H)AQ-Aib-TFI-(D-Glu)-YLIEGGPSSGAPPPS-NH2) [Example 173] | condition met |
| YXEGTXTSDQSIXLDEKAQXEFIXYLIEGGPSSGAPPPS (Y-Aib-EGT-αMeF(2F)-TSDQSI-αMeF-LDEK((2-[2-(2-Amino-ethoxy)-ethoxy]-acetyl)2-(γ-Glu)-CO-(CH2)18-CO2H)AQ-Aib-EFI-(D-Glu)-YLIEGGPSSGAPPPS-NH2) [Example 187] | condition not met |
| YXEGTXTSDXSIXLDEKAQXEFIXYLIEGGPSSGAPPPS (Y-Aib-EGT-αMeF(2F)-TSD-4Pal-SI-αMeF-LDEK((2-[2-(2-Amino-ethoxy)-ethoxy]-acetyl)2-(γ-Glu)-CO-(CH2)18-CO2H)AQ-Aib-EFI-Aib-YLIEGGPSSGAPPPS-NH2) [Example 189] | condition not met |
| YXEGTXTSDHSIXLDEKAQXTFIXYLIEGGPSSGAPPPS (Y-Aib-EGT-αMeF(2F)-TSDHSI-αMeF-LDEK((2-[2-(2-Amino-ethoxy)-ethoxy]-acetyl)2-(ϵK)-CO-(CH2)16-CO2H)AQ-Aib-TFI-(D-Glu)-YLIEGGPSSGAPPPS-NH2) [Example 176] | condition met |
| YXEGTXTSDXSILLDKKAQXAFIEYLIEGGPSSGAPPPS (Y-Aib-EGT-αMeF-TSD-αMeF-SILLDKK((2-[2-(2-Amino-ethoxy)-ethoxy]-acetyl)2-(γ-Glu)-CO-(CH2)18-CO2H)AQ-Aib-AFIEYLIEGGPSSGAPPPS-NH2) [Example 131] | condition not met |
| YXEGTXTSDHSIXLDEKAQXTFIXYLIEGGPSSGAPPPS (Y-Aib-EGT-αMeF(2F)-TSDHSI-αMeF-LDEK((2-[2-(2-Amino-ethoxy)-ethoxy]-acetyl)2-(ϵK)-CO-(CH2)18-CO2H)AQ-Aib-TFI-(D-Glu)-YLIEGGPSSGAPPPS-NH2) [Example 175] | condition met |
